- Test system: SK-OV-3
- ASSAY INFO: NCI tumour cell line growth inhibition, 48 h
Activity calls are given as the source filed them. No stated cut-off is given here; in the data, active = GI50 up to about 1.1 µM and inactive = higher.
METRIC NAME: GI50

CC(=O)Nc1ccccc1Sc1ccccc1    > 100 µM (inactive)

Recorded GI50 of O=S(=O)(O)c1ccc(/N=N\c2c(O)ccc3cc(Br)ccc23)cc1 , please.
> 100 µM (inactive)

Another compound to look at: O=C(O)C1CCC(=O)N1S(=O)(=O)c1ccccc1 (stereo not drawn)
> 100 µM (inactive)

Another compound to look at: OC12CCCCCC1(N1CCOCC1)c1ccccc12 (stereo not drawn)
> 100 µM (inactive)

Another compound to look at: Cn1c(=O)nc2n(-c3cccc(Br)c3)c3ccccc3nc-2c1=O
21.3 µM (inactive)

Another compound to look at: CC1(C)C2CCC1(C)C(NC(=O)COCCOCC(N)=O)C2 (stereo not drawn)
> 100 µM (inactive)

Another compound to look at: O=c1c(F)cn2c(=O)n1CCCCCCCn1c(=O)c(F)cn(c1=O)CCCCCCC2
> 100 µM (inactive)

Another compound to look at: CCOC(=O)[C@@H]1ON2O[C@H](OC3CCCC3(c3ccccc3)c3ccccc3)C[C@H]3OC(=O)[C@@H]1C32 (stereo partly drawn)
> 100 µM (inactive)

Another compound to look at: O=C1C2C(C(=O)N1O)N(Cc1ccccc1)C(=O)N2Cc1ccccc1 (stereo not drawn)
> 100 µM (inactive)

Another compound to look at: CN(C=O)/C=C/c1cc(O)ccc1O
> 86.1 µM (inactive)

Another compound to look at: CNc1nc(=O)c(C#N)c(-c2ccc(C)cc2)s1
> 100 µM (inactive)

Another compound to look at: Fc1cc(-c2cc(-c3ccc4c(c3)OCO4)n[nH]2)c(Cl)cc1Cl
2.13 µM (inactive)

Another compound to look at: Cc1ccc(C2(O)CC(c3ccc([N+](=O)[O-])o3)=NN2C(=O)COc2ccc(Cl)cc2)cc1 (stereo not drawn)
15.3 µM (inactive)

###

- System: CCRF-CEM
- ASSAY INFO: NCI tumour cell line growth inhibition, 48 h
Activity calls are given as the source filed them. Rule as the data show it: active = GI50 up to about 1.1 µM and inactive = higher.
Answer with one of the outcomes class 1 (active), class 0 (inactive)

Observe how each entry below is paired with its result.
CCOc1cc(C2CC(c3ccc(NS(=O)(=O)c4cc([N+](=O)[O-])ccc4C)cc3)=NN2C(=O)c2ccccc2)ccc1O (centres undefined)    class 0
COc1cccc2c(NNc3ccccc3)c3ccc([N+](=O)[O-])cc3nc12    class 0
C#CN1C(=O)c2c(c(-c3ccccc3)c(-c3ccc(Oc4ccc(-c5c(-c6ccccc6)c6c(c(-c7ccccc7)c5-c5ccccc5)C(=O)N(C#C)C6=O)cc4)cc3)c(-c3ccccc3)c2-c2ccccc2)C1=O    class 0

// param item: CC(=O)Nc1ccccc1Sc1ccccc1 ; yields the recorded call
class 0

Another compound to look at: CN(CCNC(=O)c1nn(-c2ccccc2)c2c1ccc1ccccc12)CCNC(=O)c1nn(-c2ccccc2)c2c1ccc1ccccc12
class 0

Another compound to look at: COC1=CC(=O)c2c(cc(COP(N)(=O)N(CCBr)CCBr)n2C)C1=O (centres undefined)
class 1

Another compound to look at: Cc1cc(C)nc(NS(=O)(=O)c2ccc(NC(=O)c3ccc4nc5ccccc5c(Nc5ccc(S(=O)(=O)Nc6nc(C)cc(C)n6)cc5)c4c3)cc2)n1
class 0

Another compound to look at: c1ccc([I+]c2ccccc2)cc1
class 0

Another compound to look at: COc1cc(O)c2c(=O)c(OC)c(-c3ccc(OC)c(OC)c3)oc2c1
class 0

###

- System: EKVX
- ASSAY INFO: NCI tumour cell line growth inhibition, 48 h
The source made the active and inactive calls. Rule as the data show it: active = GI50 up to about 1.1 µM and inactive = higher.
Answer with one of the outcomes active, inactive

Observe how each entry below is paired with its result.
COc1ccc2c(c1)C(=O)c1ccccc1C2    inactive
Cc1nc2ccccc2c(=O)n1/N=C(\N=N\c1cc(Cl)ccc1Cl)c1ccccc1    inactive
COc1ccc(C(NCCNC(c2ccc(OC)c(OC)c2)c2cc3c(cc2O)OCO3)c2cc3c(cc2O)OCO3)cc1OC (stereo unspecified)    inactive
Nc1ccc2nc3n(c(=O)c2c1)CCCCC3    inactive
N/N=C(/CC(O)(C(F)(F)F)C(F)(F)F)c1ccccc1    inactive
COc1ccc(C2=NNC(=O)c3ccccc3N2c2nc(-c3cccs3)nc3cc(OC)c(OC)cc23)cc1    inactive

// param item: CC(C)=CCC\C(C)=C/C=C/C(C)=C\C=C\C(C)=C/C=C/C=C(C)\C=C\C=C(C)/C=C/C=C(/C)CCC=C(C)C ; yields the recorded call
inactive

Another molecule to look at: CCOC(=O)CC1=N/C(=N/C(=N)N[N+](=O)[O-])SC1
inactive

Another molecule to look at: CC(C)C(=O)Nc1nc2c(ncn2C2OC(CO)C(O)C2O)c(=O)[nH]1 (stereo unspecified)
inactive

Another molecule to look at: Cc1ccc(NC(=O)CCc2n[nH]c(=S)o2)cc1
inactive

Another molecule to look at: CCC/C(=N\NC(=S)N1CCN(c2ccccn2)CC1)c1ccccn1
active

###

Listed here are molecules together with their documented GI50.
- System: UO-31
- ASSAY INFO: NCI tumour cell line growth inhibition, 48 h
Active and inactive are the calls of the source. No stated cut-off is given here; in the data, active = GI50 up to about 1.1 µM and inactive = higher.

Solved entries (count: 4):
COC1=CC(=O)c2c(cc(COP(N)(=O)N(CCBr)CCBr)n2C)C1=O (stereo not given)    0.131 µM (active)
Cc1cccc(NC(=S)N/N=C(/c2ccccc2)c2ccccn2)c1    0.385 µM (active)
O=C1O[C@@H](c2ccccc2)C[C@H]1CN1CCOCC1    > 100 µM (inactive)
O=C(COc1ccc2c(=O)cc(-c3ccc(Cl)cc3)oc2c1)N1CCN(c2ccccc2)CC1    1.73 µM (inactive)

Recorded GI50 of CCOC(=O)[C@@H]1ON2O[C@H](OC3CCCC3(c3ccccc3)c3ccccc3)C[C@H]3OC(=O)[C@@H]1C32 (stereo not given in full) , please.
37.6 µM (inactive)

Another molecule to look at: CC(=O)Nc1ccc(-c2nnc(SCC(=O)Nc3ccccc3C)o2)cc1
52 µM (inactive)

Another molecule to look at: Clc1ccc(Cl)c(/N=N/c2cc3c4c(c2)CCCN4CCC3)c1
> 10 µM (inactive)

Another molecule to look at: CCOC(=O)C[n+]1ccc2c([nH]c3cc(OC)ccc32)c1C
> 39.4 µM (inactive)

Another molecule to look at: O=S(=O)(O)c1ccc(/N=N\c2c(O)ccc3cc(Br)ccc23)cc1
> 100 µM (inactive)

###

- Tested on: PC-3
- ASSAY INFO: NCI tumour cell line growth inhibition, 48 h
Active and inactive are the calls of the source. No stated cut-off is given here; in the data, active = GI50 up to about 1.1 µM and inactive = higher.
METRIC NAME: GI50

Solved entries (count: 8):
CC(=O)O[C@H]1C(=O)[C@@]2(C)C(C(OC(=O)c3ccccc3)[C@]3(O)CC(OC(=O)C(O)C(NC(=O)c4ccccc4)c4cccc(Cl)c4)C(C)=C1C3(C)C)[C@]1(OC(C)=O)CO[C@@H]1C[C@@H]2O (some centres undefined)    7.11 µM (inactive)
CCCCCCCCC/C=C1\CC(CO)(COC(=O)C2CCCCC2)OC1=O (centres undefined)    17 µM (inactive)
CCC/C(=N\NC(=S)N1CCN(c2ccccn2)CC1)c1ccccn1    0.0152 µM (active)
COc1ccc2nc3cc([N+](=O)[O-])ccc3c(Nc3ccc(S(=O)(=O)NC(C)=O)cc3)c2c1    45.5 µM (inactive)
CCCCc1ccc(Nc2nc(SC)c3[nH]cnc3n2)cc1    > 100 µM (inactive)
OCCNc1ncnc2[nH]cnc12    > 100 µM (inactive)
Cc1nn(C(=O)c2ccc(Cl)cc2)c2c1C(c1ccccc1[N+](=O)[O-])SC(=N)N2 (centres undefined)    > 10 µM (inactive)
c1ccc(COc2ccc(C[P+](c3ccccc3)(c3ccccc3)c3ccccc3)cc2)cc1    0.131 µM (active)

For the record COc1ccccc1NC(=S)N/N=C(/c1ccccc1)c1ccccn1 , what value of GI50 is listed for PC-3?
< 0.0142 µM (active)

###

- System: M14
- ASSAY INFO: NCI tumour cell line growth inhibition, 48 h
Calls of active or inactive are those of the source. No stated cut-off is given here; in the data, active = GI50 up to about 1.1 µM and inactive = higher.
Answer with one of the outcomes 1.0 = active, 0.0 = inactive

// param item: COc1c2c(cc3oc(=O)ccc13)OC(C)(C)C=C2 ; yields the recorded call
0.0

Another compound to look at: COc1ccccc1-c1cc(O)c2c(C)ccnc2n1
0.0

Another compound to look at: Cc1ccc(C(=O)C(C2=Nc3nnc(N)n3C2=O)C2=Nc3nnc(N)n3C2=O)cc1
0.0

Another compound to look at: COc1ccc2c(c1)C(=O)c1ccccc1C2
0.0

Another compound to look at: CCN(CC)CCCC(C)Nc1cc(/C=C/c2ccc(Cl)cc2)nc2cc(N(C)C)ccc12 (configuration not stated)
0.0

Another compound to look at: CC(=O)Nc1ccc(S(=O)(=O)/N=C2\C=CC(=O)c3ccccc32)cc1
0.0

Another compound to look at: N#Cc1cc2c(n(C3OC(CO)C(O)C(O)C3O)c1=S)CCCCC2 (configuration not stated)
0.0

Another compound to look at: COc1cc(C=O)c(-c2cc3c(cc2C2(C)OCCS2)OCO3)c(OC)c1OC (configuration not stated)
0.0
